Assay: Effective half life in Beagle dog at 0.5 mg/kg, iv and 1 mg/kg, po
Type: ADME, organism-based, Canis lupus familiaris
Conditions: in vivo
metric: half-life (min)
// note: answer is a bare numeric in min

CCCCOC(=O)N1CCN(C(=O)[C@H](CCC(=O)O)NC(=O)c2cc(N3CCC(C(=O)N4CCCC4)CC3)cc(-c3ccccc3)n2)CC1 ... 48

In the following, a different molecule is considered.
Input line: Given the entry CCCCCOC(=O)N1CCN(C(=O)[C@H](CCC(=O)O)NC(=O)c2cc(N3CCC(C(=O)N4CCCC4)CC3)cc(-c3ccccc3)n2)CC1 , report its measured half-life.
Output line: 60

---

Experiment: Metabolic stability in rat microsomes
Format: ADME, Microsome
metric: Stability

Below: 6 compounds and their reported Stability.
CCCCCOC(=O)N1CCN(C(=O)[C@H](CCC(=O)O)NC(=O)c2cc(N3CCCC(N4CCCC4)C3)cc(-c3ccccc3)n2)CC1 (some centres not stated) ... Stable
CCCCCOC(=O)N1CCN(C(=O)[C@H](CCC(=O)O)NC(=O)c2cc(N3CCN(C(=O)N(CC)CC)CC3)cc(-c3ccccc3)n2)CC1 ... Stable
CCCCCOC(=O)N1CCN(C(=O)[C@H](CCC(=O)O)NC(=O)c2cc(N3CCC[C@H](O)C3)cc(-c3ccccc3)n2)CC1 ... Stable
CCCCCOC(=O)N1CCN(C(=O)[C@H](CCC(=O)O)NC(=O)c2cc(N3CCN(C(=O)N(C)C)CC3)cc(-c3ccccc3)n2)CC1 ... Stable
CCCCCOC(=O)N1CCN(C(=O)[C@H](CCC(=O)O)NC(=O)c2cc(N3CC(N(C)C)C3)cc(-c3ccccc3)n2)CC1 ... Stable
CCCCCOC(=O)N1CCN(C(=O)[C@H](CCC(=O)O)NC(=O)c2cc(N3CCN(CCO)CC3)cc(-c3ccccc3)n2)CC1 ... Stable

--- query ---
Input line: Stability for CCCCOC(=O)N1CCN(C(=O)[C@H](CCC(=O)O)NC(=O)c2cc(N3CCC(CN(CC)CC)CC3)cc(-c3ccccc3)n2)CC1 ?
Output line: Stable

---

Test: Protein binding in human plasma assessed as fraction unbound at 10 uM
This listing pairs compounds with measured fraction unbound at 10 µM.
Answer with a number only.

CCCCCOC(=O)N1CCN(C(=O)[C@H](CCC(=O)O)NC(=O)c2cc(N3CCC(C(=O)N4CCCC4)CC3)cc(-c3ccccc3)n2)CC1 ... 0.061

Kindly review the next compound as well.
Input line: What does the record list as fraction unbound at 10 µM for CCCCOC(=O)N1CCN(C(=O)[C@H](CCC(=O)O)NC(=O)c2cc(N3CCC(C(=O)N4CCCC4)CC3)cc(-c3ccccc3)n2)CC1 ?
Output line: 0.033

---

Test: Antiplatelet activity in human platelet rich plasma assessed as inhibition of ADP-induced platelet aggregation relative to AZD-6140
Format: functional
metric: fold change (FC)

Reference set (6 entries):
CCCCCOC(=O)N1CCN(C(=O)[C@H](CCC(=O)O)NC(=O)c2cc(N3CCC(C(=O)NCC)CC3)cc(-c3ccccc3)n2)CC1 ... 1
CCCCOC(=O)N1CCN(C(=O)[C@H](CCC(=O)O)NC(=O)c2cc(N3CCC(C(=O)N(C)C)CC3)cc(-c3ccccc3)n2)CC1 ... 0.53
CCCCCOC(=O)N1CCN(C(=O)[C@H](CCC(=O)O)NC(=O)c2cc(N3CCCC(CN4CCCC4=O)C3)cc(-c3ccccc3)n2)CC1 (some centres not stated) ... 3.8
CCCCCOC(=O)N1CCN(C(=O)[C@H](CCC(=O)O)NC(=O)c2cc(N3CCCC(C(=O)N(CC)CC)C3)cc(-c3ccccc3)n2)CC1 (some centres not stated) ... 4.2
CCCCCOC(=O)N1CCN(C(=O)[C@H](CCC(=O)O)NC(=O)c2cc(N3CC[C@H](C(=O)N(C)C)C3)cc(-c3ccccc3)n2)CC1 ... 4.1
CCCCCOC(=O)N1CCN(C(=O)[C@H](CCC(=O)O)NC(=O)c2cc(N3CCC(CN(C)C)CC3)cc(-c3ccccc3)n2)CC1 ... 1.3

Next compound, fold change (FC) to be filled in.
Input line: Given the compound CCCCCOC(=O)N1CCN(C(=O)[C@H](CCC(=O)O)NC(=O)c2cc(N3CCN(CCOCCC)CC3)cc(-c3ccccc3)n2)CC1 , what is its reported fold change (FC)?
Output line: 3.1

Attribution: ChEMBL document CHEMBL1156904
